experiment: GSK_TCMDC: Inhibition Frequency Index (IFI). The number of non-kinase HTS assays where a compound showed > 50 % inhibition, expressed as a percentage of the number of such assays in which the compound was tested; format: functional
The full ranking holds about 13,000 compounds; the median of “IFI” is about 4, and the highest 2% start at about 17. The sample as a whole holds a higher share of the highest values than the screen did.
For each record, write down the corresponding IFI.
Write the answer as a number in %, unit excluded.

(Q) Quick one: IFI of "CCCCCCCN1CC[C@@H](CCCc2ccnc3ccc(OCCCCN/C(N)=N/O)cc23)[C@@H](CC)C1" ?
(A) 9.66

(Q) Now this one: "c1ccc2c(CNCCCN3CCN(CCCNCc4c5ccccc5cc5ccccc45)CC3)c3ccccc3cc2c1"
(A) 15.3

(Q) Now this one: COc1cc(NCC(C)CNCc2cn(Cc3ccccc3)c3ccccc23)nc2ccccc12 (configuration not stated)
(A) 7.19

(Q) Now this one: "COc1cc(NCCCCCNc2cc(Cl)nc3ccccc23)nc2ccccc12"
(A) 15.8

(Q) Now this one: CCN(CC)CCCC(C)N=c1cc(C=Cc2ccc([N+](=O)[O-])cc2)[nH]c2ccc(OC)cc12 (configuration not stated)
(A) 1.65

(Q) Now this one: "CCOC(=O)c1cc(C(=O)NCCCCN2CCC(c3cn(C)c4ccccc34)CC2)ccc1-c1ccc(C(F)(F)F)cc1"
(A) 5.31

(Q) Now this one: COc1ccccc1CN1CCC(CNC(=O)c2cc(-c3ccc(N(C)C)cc3)cs2)C1 (configuration not stated)
(A) 13.7

(Q) Now this one: Cc1cccc2nc(-c3ccc(-c4ccc(CN5CC(C)OC(C)C5)cc4)cc3)[nH]c12 (configuration not stated)
(A) 6.94

(Q) Now this one: COc1ccc(N(c2nc(-c3cc(Cl)ccc3Cl)cs2)C2CCNC2)cc1 (configuration not stated)
(A) 20

(Q) Now this one: "COc1cc(NCCCNCC2c3ccccc3Oc3ccccc32)nc2ccccc12"
(A) 20.8

(Q) Now this one: Cc1cc(F)ccc1N(c1nc(-c2cc(Cl)ccc2Cl)cs1)C1CCNC1 (configuration not stated)
(A) 21.4

(Q) Now this one: NC1CCCN(Cc2cccc(-c3ccc(-c4nc5cc(C(F)(F)F)ccc5[nH]4)cc3)c2)C1 (configuration not stated)
(A) 5.63
